Each recorded value in this set is attributed to ChEMBL document CHEMBL5500392.

TARGET_OR_SYSTEM: Tyrosine-protein kinase JAK2 (Homo sapiens, UniProt O60674)
Sequence (O60674 whole entry, the tested form may be a part): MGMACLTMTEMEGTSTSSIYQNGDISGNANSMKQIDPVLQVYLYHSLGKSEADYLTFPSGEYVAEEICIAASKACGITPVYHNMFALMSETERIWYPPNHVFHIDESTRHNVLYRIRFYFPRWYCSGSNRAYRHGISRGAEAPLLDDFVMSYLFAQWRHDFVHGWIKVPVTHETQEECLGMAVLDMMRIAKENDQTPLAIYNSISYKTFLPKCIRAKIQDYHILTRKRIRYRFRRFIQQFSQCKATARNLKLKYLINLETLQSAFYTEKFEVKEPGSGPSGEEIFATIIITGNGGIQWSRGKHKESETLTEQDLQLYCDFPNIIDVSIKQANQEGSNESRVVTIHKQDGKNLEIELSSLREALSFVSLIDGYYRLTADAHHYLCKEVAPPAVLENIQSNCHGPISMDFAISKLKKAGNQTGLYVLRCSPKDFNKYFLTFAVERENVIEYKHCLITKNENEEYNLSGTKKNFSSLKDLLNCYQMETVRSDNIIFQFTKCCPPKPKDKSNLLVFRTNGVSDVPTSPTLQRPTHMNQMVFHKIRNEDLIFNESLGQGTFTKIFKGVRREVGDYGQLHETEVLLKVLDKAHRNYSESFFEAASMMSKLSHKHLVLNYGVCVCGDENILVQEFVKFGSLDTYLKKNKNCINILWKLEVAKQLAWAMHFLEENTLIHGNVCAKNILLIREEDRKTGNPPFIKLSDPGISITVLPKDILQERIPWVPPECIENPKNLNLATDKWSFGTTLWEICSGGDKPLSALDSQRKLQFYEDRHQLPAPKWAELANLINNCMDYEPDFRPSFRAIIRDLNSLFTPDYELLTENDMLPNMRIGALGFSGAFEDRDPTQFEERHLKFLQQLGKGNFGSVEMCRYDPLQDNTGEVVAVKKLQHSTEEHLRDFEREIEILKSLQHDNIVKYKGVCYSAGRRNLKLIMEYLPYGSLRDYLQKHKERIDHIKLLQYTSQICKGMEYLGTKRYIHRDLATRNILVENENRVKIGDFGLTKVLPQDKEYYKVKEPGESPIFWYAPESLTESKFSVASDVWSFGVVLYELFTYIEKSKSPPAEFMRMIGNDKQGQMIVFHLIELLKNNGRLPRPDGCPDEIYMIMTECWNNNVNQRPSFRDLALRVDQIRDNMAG
ASSAY_INFO: Binding affinity to recombinant human JAK2 kinase domain (840 to 1132 residues) assessed as dissociation constant by fluorescence polarization measurement combined ITC analysis
ATTRIBUTE_MEASURED: pKd
Numbers only, as −log10 of the molar value.

Query: Given `Cc1cc(Nc2cc(CN3CCOCC3)c3nc(C)c(Cc4ccc(Cl)cc4F)n3n2)n[nH]1` , respond with its pKd.
Result: 7.96

###

TARGET_OR_SYSTEM: Non-receptor tyrosine-protein kinase TYK2 (Homo sapiens)
ASSAY_INFO: Binding affinity to recombinant human TYK2 kinase domain by fluorescence polarization assay
Assignment: determine reported Kd for the given compounds.
Provide the measurement as a number trailed by its unit.

1. C1=C/COCc2cc(ccc2OCCN2CCCC2)Nc2nccc(n2)-c2cccc(c2)COC/1 [PACRITINIB]	125 nM
2. Cc1cc(Nc2cc(CN3CCOCC3)c3nc(C)c(Cc4ccc(Cl)cc4F)n3n2)n[nH]1 [GANDOTINIB]	16 nM
3. C[C@H](Nc1cc(-c2cnn(C)c2)cc(Nc2cnccn2)n1)c1ccc(F)cc1 [NS-018]	21 nM
4. CCS(=O)(=O)N1CCN(c2ccc(Nc3ncc(C(N)=O)c(NC4CC4)n3)cc2)CC1 [CERDULATINIB]	6.9 nM

Now, please, on to the next compound.
Query: Given N#CCC1(n2cc(-c3ncnc4[nH]ccc34)cn2)CN(C2CCN(C(=O)c3ccnc(C(F)(F)F)c3F)CC2)C1 [ITACITINIB] , respond with its Kd.
Result: 385 nM

###

TARGET_OR_SYSTEM: UniProtKB O60674
ASSAY_INFO: Inhibition of JAK2-mediated erythropoietin-induced STAT5 phosphorylation in human TF-1 cells pretreated for 60 mins followed by erythropoietin addition and measured after 15 mins by pacific orange/pacific blue NHS esters based Beckmann coulter flow cytometer
Format: cell-based
ATTRIBUTE_MEASURED: pIC50
Numbers only, as −log10 of the molar value.

Below, 3 compounds whose answers are already recorded.
1. CCS(=O)(=O)N1CCN(c2ccc(Nc3ncc(C(N)=O)c(NC4CC4)n3)cc2)CC1	7.00
2. Cc1cc(Nc2cc(CN3CCOCC3)c3nc(C)c(Cc4ccc(Cl)cc4F)n3n2)n[nH]1	6.81
3. N#CCC1(n2cc(-c3ncnc4[nH]ccc34)cn2)CN(C2CCN(C(=O)c3ccnc(C(F)(F)F)c3F)CC2)C1	6.31

Now, please, on to the next compound.
Query: Param request: pIC50 | system UniProtKB O60674 | item `C[C@H](Nc1cc(-c2cnn(C)c2)cc(Nc2cnccn2)n1)c1ccc(F)cc1`
Result: 7.39

###

TARGET_OR_SYSTEM: Non-receptor tyrosine-protein kinase TYK2 (Homo sapiens, UniProt P29597)
Sequence (P29597 whole entry, the tested form may be a part): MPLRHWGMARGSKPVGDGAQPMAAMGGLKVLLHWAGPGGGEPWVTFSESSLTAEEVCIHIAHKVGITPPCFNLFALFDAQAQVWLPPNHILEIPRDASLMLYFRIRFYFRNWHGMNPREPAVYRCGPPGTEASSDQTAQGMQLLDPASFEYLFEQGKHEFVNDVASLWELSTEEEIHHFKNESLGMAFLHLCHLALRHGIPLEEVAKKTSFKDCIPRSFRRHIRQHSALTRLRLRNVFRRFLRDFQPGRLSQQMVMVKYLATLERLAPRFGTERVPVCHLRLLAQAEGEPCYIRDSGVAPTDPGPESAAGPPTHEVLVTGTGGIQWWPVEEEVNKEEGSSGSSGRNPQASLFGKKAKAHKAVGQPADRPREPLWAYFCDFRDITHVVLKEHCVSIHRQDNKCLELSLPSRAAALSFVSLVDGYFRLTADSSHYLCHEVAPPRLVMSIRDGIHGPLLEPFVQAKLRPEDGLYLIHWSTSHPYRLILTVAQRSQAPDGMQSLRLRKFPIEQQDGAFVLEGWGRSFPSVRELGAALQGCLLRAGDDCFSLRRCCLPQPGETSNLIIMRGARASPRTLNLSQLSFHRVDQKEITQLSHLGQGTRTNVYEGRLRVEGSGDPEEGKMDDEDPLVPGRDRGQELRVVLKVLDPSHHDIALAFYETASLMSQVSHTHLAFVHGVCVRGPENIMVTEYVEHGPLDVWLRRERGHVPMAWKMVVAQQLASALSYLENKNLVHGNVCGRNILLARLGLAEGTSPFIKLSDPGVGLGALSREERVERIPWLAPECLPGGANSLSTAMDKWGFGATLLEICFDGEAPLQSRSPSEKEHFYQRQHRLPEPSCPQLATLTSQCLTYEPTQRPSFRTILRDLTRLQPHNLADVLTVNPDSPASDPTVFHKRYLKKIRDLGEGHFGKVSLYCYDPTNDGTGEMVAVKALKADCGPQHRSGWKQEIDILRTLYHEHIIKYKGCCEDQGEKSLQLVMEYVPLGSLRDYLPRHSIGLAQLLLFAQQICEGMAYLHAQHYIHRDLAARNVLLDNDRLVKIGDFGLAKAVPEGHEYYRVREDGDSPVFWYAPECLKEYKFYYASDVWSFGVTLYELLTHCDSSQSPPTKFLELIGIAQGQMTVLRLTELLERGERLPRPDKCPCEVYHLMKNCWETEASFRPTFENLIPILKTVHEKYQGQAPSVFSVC
ASSAY_INFO: Inhibition of recombinant human TYK2 assessed as inhibition of substrate phosphorylation measured every 5 mins for 30 mins by LANCE Ultra kinase assay
pIC50: −log10 of the molar value.
Rule: 1 (yes) for pIC50 not less than 7, 0 (no) for anything less.

Consider the following illustrative entries.
1. N#CCC1(n2cc(-c3ncnc4[nH]ccc34)cn2)CN(C2CCN(C(=O)c3ccnc(C(F)(F)F)c3F)CC2)C1 [ITACITINIB]	0 (no)
2. CCS(=O)(=O)N1CCN(c2ccc(Nc3ncc(C(N)=O)c(NC4CC4)n3)cc2)CC1 [CERDULATINIB]	1 (yes)
3. C1=C/COCc2cc(ccc2OCCN2CCCC2)Nc2nccc(n2)-c2cccc(c2)COC/1 [PACRITINIB]	0 (no)

Okay, now this compound:
Query: Quick check, pIC50 >= 7? C[C@H](Nc1cc(-c2cnn(C)c2)cc(Nc2cnccn2)n1)c1ccc(F)cc1 [NS-018]
Result: 0 (no)
